Tested on: cellular calpains in C2C12 myoblasts
Assay: Calpain Inhibition Assay in C2C12 Myoblasts
Type: cell-based
Details: read-out: Calp I IC50 Myoblast
pIC50: −log10 of the molar value.
Label scheme for pIC50: lower than 7 is no, 7 and above is yes.

{"compound": "CCNC(=O)C(=O)C(Cc1ccccc1)NC(=O)C(NC(=O)C(Cc1cccc2ccccc12)NC(=O)CCCCC1CCSS1)C(C)C (centres unmarked) [Example 735]", "target system": "cellular calpains in C2C12 myoblasts", "class assignment": "yes"}
{"compound": "CCNC(=O)C(=O)[C@H](Cc1ccc(Cl)cc1)NC(=O)[C@@H](NC(=O)[C@H](Cc1ccccc1)NC(=O)CCCCC1CCS[S+]1[O-])C(C)C (some centres unmarked) [Example 2]", "target system": "cellular calpains in C2C12 myoblasts", "class assignment": "no"}
{"compound": "CCNC(=O)C(=O)C(Cc1ccc(OC)cc1)NC(=O)C(CC(C)C)NC(=O)C(Cc1cccc2ccccc12)NC(=O)CCCCC1CCSS1 (centres unmarked) [Example 637]", "target system": "cellular calpains in C2C12 myoblasts", "class assignment": "yes"}
{"compound": "CCNC(=O)C(=O)[C@H](Cc1ccc(Cl)cc1)NC(=O)[C@@H](NC(=O)[C@H](Cc1ccccc1)NC(=O)CCCCC1CCSS1)C(C)C (some centres unmarked) [Example 1]", "target system": "cellular calpains in C2C12 myoblasts", "class assignment": "no"}
{"compound": "CCNC(=O)C(=O)C(Cc1ccc(OC)cc1)NC(=O)C(NC(=O)C(Cc1csc2ccccc12)NC(=O)CCCCC1CCS[S+]1[O-])C(C)C (centres unmarked) [Example 606]", "target system": "cellular calpains in C2C12 myoblasts", "class assignment": "yes"}

----------
// values below are reported IC50
Molecular target: human μ-calpain (Homo sapiens)
Sequence (P07384 1-714): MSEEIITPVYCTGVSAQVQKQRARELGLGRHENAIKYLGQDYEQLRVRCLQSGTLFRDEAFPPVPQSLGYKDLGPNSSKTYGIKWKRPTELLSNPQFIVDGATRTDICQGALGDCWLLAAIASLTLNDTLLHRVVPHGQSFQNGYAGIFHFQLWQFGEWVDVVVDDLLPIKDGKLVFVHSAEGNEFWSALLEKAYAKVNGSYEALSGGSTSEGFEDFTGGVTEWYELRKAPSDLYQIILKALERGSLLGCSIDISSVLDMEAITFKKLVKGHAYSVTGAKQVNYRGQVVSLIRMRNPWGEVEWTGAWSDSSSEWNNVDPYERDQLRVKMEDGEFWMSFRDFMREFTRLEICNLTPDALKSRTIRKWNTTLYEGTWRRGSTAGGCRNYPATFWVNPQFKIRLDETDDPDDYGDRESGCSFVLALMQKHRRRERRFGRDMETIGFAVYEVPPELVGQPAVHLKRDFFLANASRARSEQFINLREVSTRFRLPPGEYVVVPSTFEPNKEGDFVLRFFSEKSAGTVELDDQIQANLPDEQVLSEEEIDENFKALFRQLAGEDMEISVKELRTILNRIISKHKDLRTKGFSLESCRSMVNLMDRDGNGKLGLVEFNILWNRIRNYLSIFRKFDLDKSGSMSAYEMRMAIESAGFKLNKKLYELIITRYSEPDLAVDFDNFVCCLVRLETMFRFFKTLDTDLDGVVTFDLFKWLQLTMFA
Sequence (P04632 1-268 partner): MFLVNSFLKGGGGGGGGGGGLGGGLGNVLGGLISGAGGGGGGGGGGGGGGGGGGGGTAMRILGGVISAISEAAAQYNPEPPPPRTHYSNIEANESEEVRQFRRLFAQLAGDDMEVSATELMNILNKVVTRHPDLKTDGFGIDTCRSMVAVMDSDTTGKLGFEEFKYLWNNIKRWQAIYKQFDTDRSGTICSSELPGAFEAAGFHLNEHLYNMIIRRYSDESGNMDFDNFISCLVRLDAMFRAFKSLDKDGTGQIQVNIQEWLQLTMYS
reported endpoint: IC50 (nM)

{"molecule": "CCNC(=O)C(=O)[C@H](Cc1ccc(Cl)cc1)NC(=O)[C@@H](NC(=O)[C@H](Cc1ccccc1)NC(=O)CCCCC1CCS[S+]1[O-])C(C)C (stereo partly shown) [Example 2]", "reported endpoint": "IC50", "measured": 38}
{"molecule": "CCNC(=O)C(=O)[C@H](Cc1ccc(Cl)cc1)NC(=O)[C@@H](NC(=O)[C@H](Cc1ccccc1)NC(=O)CCCCC1CCSS1)C(C)C (stereo partly shown) [Example 1]", "reported endpoint": "IC50", "measured": 45}
{"molecule": "CCNC(=O)C(=O)C(Cc1ccc(OC)cc1)NC(=O)C(NC(=O)C(Cc1csc2ccccc12)NC(=O)CCCCC1CCS[S+]1[O-])C(C)C (stereo not shown) [Example 606]", "reported endpoint": "IC50", "measured": 16}
{"molecule": "CCNC(=O)C(=O)C(Cc1ccc(OC)cc1)NC(=O)C(CC(C)C)NC(=O)C(Cc1cccc2ccccc12)NC(=O)CCCCC1CCSS1 (stereo not shown) [Example 637]", "reported endpoint": "IC50", "measured": 30}
